Where these numbers come from: patent US8889709B2

# pKi per entry
TESTED_TARGET: human isoQC (Homo sapiens, UniProt Q9NXS2, C369A/I73N)
Sequence (Q9NXS2 48-382 I73N/C369A): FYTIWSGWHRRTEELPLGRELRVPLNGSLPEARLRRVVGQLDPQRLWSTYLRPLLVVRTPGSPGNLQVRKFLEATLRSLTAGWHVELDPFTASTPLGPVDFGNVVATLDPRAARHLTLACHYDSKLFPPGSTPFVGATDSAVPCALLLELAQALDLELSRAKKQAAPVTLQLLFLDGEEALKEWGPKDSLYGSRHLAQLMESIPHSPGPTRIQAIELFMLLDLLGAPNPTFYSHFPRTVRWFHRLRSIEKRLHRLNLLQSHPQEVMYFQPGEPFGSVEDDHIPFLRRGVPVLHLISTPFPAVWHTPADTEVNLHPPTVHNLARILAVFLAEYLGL
TEST_SUMMARY: Inhibitor assay, human isoQC (Ki/IC50, competitive inhibition)
To interpret pKi, take it as minus log10 of a concentration measured in moles per litre.

Take a look at these entries with their results.
[[record]]
compound = "O=C1NC(=O)N(c2ccc3[nH]cnc3c2)C1c1ccc(F)cc1 (stereo not shown)"
reported_value = 7.91

[[record]]
compound = "O=C1NC(=O)N(c2ccc3[nH]cnc3c2)C1c1ccccc1 (stereo not shown)"
reported_value = 7.79

[[record]]
compound = "c1ccc2[nH]cnc2c1"
reported_value = 3.60

[[record]]
compound = "O=C1NC(=S)C(c2ccc(Cl)cc2)N1c1ccc2[nH]cnc2c1 (stereo not shown)"
reported_value = 7.94

[[record]]
compound = "O=C1NC(=O)N(c2ccc3[nH]cnc3c2)C1c1ccc2nsnc2c1 (stereo not shown)"
reported_value = 8.79


Assay human isoQC (Homo sapiens, UniProt Q9NXS2, C369A/I73N), sample O=C1NC(=O)N(c2ccc3[nH]cnc3c2)C1c1cc(F)ccc1Br (stereo not shown) , pKi read: 8.08

Assay human isoQC (Homo sapiens, UniProt Q9NXS2, C369A/I73N), sample COc1ccc(C2C(=O)NC(=O)N2c2ccc3[nH]cnc3c2)cc1O (stereo not shown) , pKi read: 8.58

Assay human isoQC (Homo sapiens, UniProt Q9NXS2, C369A/I73N), sample "O=C1NC(=O)C2(Cc3ccccc3C2)N1c1ccc2[nH]cnc2c1" , pKi read: 7.39

Assay human isoQC (Homo sapiens, UniProt Q9NXS2, C369A/I73N), sample "Cn1ccnc1" , pKi read: 4.09

Assay human isoQC (Homo sapiens, UniProt Q9NXS2, C369A/I73N), sample O=C1NC(=O)N(c2ccc3[nH]cnc3c2)C1c1cc(C(F)(F)F)ccc1F (stereo not shown) , pKi read: 7.59

Assay human isoQC (Homo sapiens, UniProt Q9NXS2, C369A/I73N), sample O=C1NC(=O)N(c2ccc3[nH]cnc3c2)C1c1cccc(Cl)c1 (stereo not shown) , pKi read: 7.98

Assay human isoQC (Homo sapiens, UniProt Q9NXS2, C369A/I73N), sample O=C1NC(=O)N(c2ccc3[nH]cnc3c2)C1c1ccc2c(c1)OCCO2 (stereo not shown) , pKi read: 8.38

Assay human isoQC (Homo sapiens, UniProt Q9NXS2, C369A/I73N), sample O=C1NC(=S)C(c2ccc(F)c(F)c2F)N1c1ccc2nc[nH]c2c1 (stereo not shown) , pKi read: 7.46

Assay human isoQC (Homo sapiens, UniProt Q9NXS2, C369A/I73N), sample O=C1NC(=O)N(c2ccc3[nH]cnc3c2)C1c1ccc(Cl)c(C(F)(F)F)c1 (stereo not shown) , pKi read: 7.45

Assay human isoQC (Homo sapiens, UniProt Q9NXS2, C369A/I73N), sample O=C1NC(=O)N(c2ccc3[nH]cnc3c2)C1c1ccccc1Cl (stereo not shown) , pKi read: 8.51

Assay human isoQC (Homo sapiens, UniProt Q9NXS2, C369A/I73N), sample O=C1NC(=O)N(c2ccc3[nH]cnc3c2)C1c1ccc(Cl)cc1 (stereo not shown) , pKi read: 8.17

---

# Ki per entry
TESTED_TARGET: human isoQC (Homo sapiens, UniProt Q9NXS2)
Sequence (Q9NXS2 48-382): as the sequence (Q9NXS2 48-382 I73N/C369A) above, with N26I, A322C counted along it
TEST_SUMMARY: Inhibitor assay, human isoQC (Ki/IC50, competitive inhibition)
Param answer (str): number followed by unit.

Take a look at these entries with their results.
[[record]]
molecule = "c1ccc2[nH]cnc2c1"
parameter_measured = "Ki"
reported_value = "200 µM"

[[record]]
molecule = "Cn1ccnc1"
parameter_measured = "Ki"
reported_value = "80 µM"


// next entry
Assay human isoQC (Homo sapiens, UniProt Q9NXS2), sample COc1ccc(NC(=S)NCCCn2ccnc2)cc1OC.Cl [hydrochloride] , Ki read: 0.48 µM

---

TESTED_TARGET: human QC (Homo sapiens)
Sequence (Q16769 29-361): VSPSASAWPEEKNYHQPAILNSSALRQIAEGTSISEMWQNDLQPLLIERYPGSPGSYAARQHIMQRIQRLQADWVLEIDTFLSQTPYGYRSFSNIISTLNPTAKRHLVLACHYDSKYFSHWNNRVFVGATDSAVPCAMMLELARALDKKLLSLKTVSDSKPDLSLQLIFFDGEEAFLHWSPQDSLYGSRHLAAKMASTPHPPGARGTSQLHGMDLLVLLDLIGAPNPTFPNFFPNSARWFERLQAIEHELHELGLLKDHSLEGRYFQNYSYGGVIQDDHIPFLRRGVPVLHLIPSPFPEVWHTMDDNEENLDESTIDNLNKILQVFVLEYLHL
TEST_SUMMARY: Inhibitor assay, human QC (Ki/IC50, competitive inhibition)
PARAMETER_MEASURED: Ki
Param answer (str): number followed by unit.

Memo: Cn1ccnc1 [1-Methylimidazole] , reported Ki: 39.7 µM

---

# pIC50 per entry
TESTED_TARGET: human isoQC (Homo sapiens, UniProt Q9NXS2, C369A/I73N)
TEST_SUMMARY: Inhibitor assay, human isoQC (Ki/IC50, competitive inhibition)
To interpret pIC50, take it as minus log10 of a concentration measured in moles per litre.

Assay human isoQC (Homo sapiens, UniProt Q9NXS2, C369A/I73N), sample O=C1NC(=S)C(c2ccc(F)c(F)c2F)N1c1ccc2nc[nH]c2c1 (stereo not drawn) [Example 41] , pIC50 read: 6.79

Assay human isoQC (Homo sapiens, UniProt Q9NXS2, C369A/I73N), sample O=C1NC(=O)N(c2ccc3[nH]cnc3c2)C1c1ccc(Cl)cc1 (stereo not drawn) [Example 13] , pIC50 read: 7.28

---

TESTED_TARGET: human isoQC (Homo sapiens, UniProt Q9NXS2)
TEST_SUMMARY: Kinetic evaluation of peptide substrates of human isoQC
Type: biochemical
Parameters: The cDNA of the mature human isoQC starting with codon 30 (counting from methionine II); His6 (C-His) (C); yeast alpha-factor secretion signal (YSS) (N); made in house; host or cells: Pichia pastoris X-33
CONDITION_DETAILS: human isoQC expressed in E. coli BL21 (hisoQCdt)
Peptide text beside a SMILES is read from it.
Decision: Km >= 0.1 mM yields T, all other cases yield F.

[[record]]
molecule = "NC(=O)CC[C@H](NC(=O)[C@@H](N)CCC(N)=O)C(=O)O [QQ] (H-Gln-Gln-OH)"
qualitative_label = "T"

[[record]]
molecule = "Cc1cc(=O)oc2cc(NC(=O)[C@@H](N)CCC(N)=O)ccc12"
qualitative_label = "F"

[[record]]
molecule = "CC(C)C[C@H](NC(=O)[C@H](CC(=O)O)NC(=O)[C@H](CCC(=O)O)NC(=O)[C@@H](N)CCC(N)=O)C(=O)O [QEDL] (H-QEDL-OH)"
qualitative_label = "T"


Could you verify whether the entry NC(=O)CC[C@H](N)C(=O)NCC(=O)O [QG] (H-Gln-Gly-OH) shows Km of no less than 0.1 mM?
T

Could you verify whether the entry C[C@H](NC(=O)[C@H](Cc1ccccc1)NC(=O)[C@@H](N)CCC(N)=O)C(=O)O [QFA] (H-Gln-Phe-Ala-OH) shows Km of no less than 0.1 mM?
T

Could you verify whether the entry "NC(=O)CC[C@H](N)C(=O)Nc1ccc2ccccc2c1" shows Km of no less than 0.1 mM?
F

Could you verify whether the entry NC(=O)CC[C@H](N)C(=O)N[C@@H](CCC(=O)O)C(=O)O [QE] (H-Gln-Glu-OH) shows Km of no less than 0.1 mM?
T

---

TESTED_TARGET: human isoQC (Homo sapiens, UniProt Q9NXS2, C369A/I73N)
TEST_SUMMARY: Inhibitor assay, human isoQC (Ki/IC50, competitive inhibition)
# pIC50 per entry
To interpret pIC50, take it as minus log10 of a concentration measured in moles per litre.

Take a look at these entries with their results.
[[record]]
compound = "O=C1NC(=O)N(c2ccc3[nH]cnc3c2)C1c1ccc2nsnc2c1 (stereo not shown)"
tested_target = "human isoQC (Homo sapiens, UniProt Q9NXS2, C369A/I73N)"
parameter_measured = "pIC50"
reported_value = 8.48

[[record]]
compound = "O=C1NC(=O)N(c2ccc3[nH]cnc3c2)C1c1ccccc1Cl (stereo not shown)"
tested_target = "human isoQC (Homo sapiens, UniProt Q9NXS2, C369A/I73N)"
parameter_measured = "pIC50"
reported_value = 7.40

[[record]]
compound = "O=C1NC(=O)N(c2ccc3[nH]cnc3c2)C1c1ccc(Cl)c(C(F)(F)F)c1 (stereo not shown)"
tested_target = "human isoQC (Homo sapiens, UniProt Q9NXS2, C369A/I73N)"
parameter_measured = "pIC50"
reported_value = 5.85

[[record]]
compound = "O=C1NC(=O)C2(Cc3ccccc3C2)N1c1ccc2[nH]cnc2c1"
tested_target = "human isoQC (Homo sapiens, UniProt Q9NXS2, C369A/I73N)"
parameter_measured = "pIC50"
reported_value = 6.78


Memo: O=C1NC(=O)N(c2ccc3[nH]cnc3c2)C1c1ccccc1 (stereo not shown) , reported pIC50: 7.53

Memo: O=C1NC(=O)N(c2ccc3[nH]cnc3c2)C1c1ccc(F)cc1 (stereo not shown) , reported pIC50: 7.22

Memo: O=C1NC(=O)N(c2ccc3[nH]cnc3c2)C1c1cc(F)ccc1Br (stereo not shown) , reported pIC50: 7.18
